Origin of the recorded values: patent US20260250257A1

Test system: ATCC19606 strain (Acinetobacter baumannii)
procedure summary: Checkerboard antibacterial synergistic activity test with polymyxin E (FIC)
Format: cell-based
Parameters: key: FIC≤0.5 synergy; 0.5–1 additive; 1–2 indifferent; ≥2 antagonism
conditions used: combined with polymyxin E
Method: Polymyxin E was diluted in sterile MH broth medium to concentrations of 16, 8, 4, 2, 1, 0.5, 0.25, 0.125, 0.0625, 0.031, and 0.015 μg/ml, and the drug to be tested was diluted to concentrations of 256, 128, 64, 32, 16, 8, and 4 μg/ml. […] Fractional Inhibitory Concentration (FIC) is calculated as follows: […]
observable: Synergistic activity (FIC value) ATCC19606
Enter a number only.

These recorded examples may help you get a feel for the data.
Cc1ccc(NC(=O)Nc2cccc(-c3nc(N=C(N)N)sc3C)c2)c(C)c1 [Compound I-132]	0.03
NC(N)=Nc1nc(-c2c(I)cc(I)cc2I)cs1 [Compound I-54]	0.15
FC(F)(F)c1ccc(-c2cccs2)c(-c2c[nH]c(N=C3NCCCN3)n2)c1 [Compound I-140]	0.51
NC(N)=Nc1nc(-c2ccc(F)cc2Oc2ccc(Cl)cc2Cl)c(Cl)s1 [Compound I-90]	0.03
NC(N)=Nc1nc(-c2cccc(Oc3ccccc3I)c2)cs1 [Compound I-96]	0.03

Q) Reported Synergistic activity (FIC value) ATCC19606 for Cc1sc(N=C(N)N)nc1-c1ccccc1Oc1ccccn1 [Compound I-101] : what is it?
A) 0.25

Q) What does the data say about its Synergistic activity (FIC value) ATCC19606? Entry: CC(C)=CCOc1ccccc1-c1csc(N=C(N)N)n1 [Compound I-46]
A) 0.31

Q) So what does the record say about Synergistic activity (FIC value) ATCC19606 for C[S+]([O-])c1cccc(-c2csc(N=C(N)N)n2)c1 (stereo not drawn) [Compound I-27] ?
A) 0.51

Q) Which measured Synergistic activity (FIC value) ATCC19606 value corresponds to NC(N)=Nc1nc(-c2cccc(NC(=O)Nc3ccccc3)c2)cs1 [Compound I-131] ?
A) 0.31

====

Test system: ATCC25922 strain (Escherichia coli)
procedure summary: Broth microdilution, antibacterial activity of the compound used alone
Type: cell-based
observable: Antibacterial activity of the compound of Formula I, ATCC25922 (µg/mL)
Respond with the bare value in µg/mL.

Oc1c(I)cc(-c2nc(N=C3NCCCN3)sc2Cl)cc1I [Compound I-183]	256
NC(N)=Nc1nc(-c2ccccc2Oc2ccccc2Cl)cs1 [Compound I-84]	256
O=C(Nc1ccccc1)Nc1cccc(-c2nc(N=C3NCCCN3)sc2Br)c1 [Compound I-198]	128
Oc1ccc(-c2ccccn2)c(-c2c[se]c(N=C3NCCCN3)n2)c1 [Compound I-137]	128

Q) Value lookup for Antibacterial activity of the compound of Formula I, ATCC25922; key = NC(N)=Nc1nc(-c2cc(Cl)cc(Oc3ccc(Cl)cc3Cl)c2)cs1 [Compound I-99]
A) 256

Q) Requested field: Antibacterial activity of the compound of Formula I, ATCC25922. Item: CS(=O)(=O)c1ccc(Oc2ccccc2Cl)cc1-c1nc(N=C2NCCCN2)sc1Cl [Compound I-155]
A) 128

Q) # Antibacterial activity of the compound of Formula I, ATCC25922 lookup, item Cc1oc(N=C(N)N)nc1-c1cccc2ccc(Cl)cc12 [Compound I-63]
A) 256

====

Tested on: ATCC19606 strain (Acinetobacter baumannii)
procedure summary: Checkerboard antibacterial synergistic activity test with polymyxin E (FIC)
Format: cell-based
Set-up: key: FIC≤0.5 synergy; 0.5–1 additive; 1–2 indifferent; ≥2 antagonism
conditions used: combined with polymyxin E
Recorded Synergistic activity (FIC value) ATCC19606, one value per entry.
Please state the value as a number alone, without comment.

Check out these entries, answers already filled in.
NC(N)=Nc1nc(-c2cccc(NC(=O)c3ccccc3)c2)cs1 [Compound I-109]	1.25
Ic1ccccc1Oc1ccccc1-c1csc(N=C2NCCCN2)n1 [Compound I-147]	0.03
Cc1sc(N=C2NCCCN2)nc1-c1cc(I)cc(I)c1 [Compound I-182]	0.25
NC(N)=Nc1nc(-c2c(Cl)cc(Cl)cc2Cl)c[nH]1 [Compound I-52]	0.3
Cc1ccccc1Oc1cccc(-c2coc(N=C3NCCCN3)n2)c1 [Compound I-152]	0.38

Q) Would you mind telling me what Synergistic activity (FIC value) ATCC19606 value was observed for NC(N)=Nc1nc(-c2cccc(C(F)(F)F)c2)c[nH]1 [Compound I-42] ?
A) 1.25

Q) Looking for the measured Synergistic activity (FIC value) ATCC19606 of CSc1cc2ccccn2c1-c1csc(N=C(N)N)n1 [Compound I-123] , can you help?
A) 0.31

====

Tested on: ATCC19606 strain (Acinetobacter baumannii)
procedure summary: Checkerboard antibacterial synergistic activity test with polymyxin E (FIC)
Type: cell-based
Parameters: key: FIC≤0.5 synergy; 0.5–1 additive; 1–2 indifferent; ≥2 antagonism
conditions used: combined with polymyxin E
Method: Polymyxin E was diluted in sterile MH broth medium to concentrations of 16, 8, 4, 2, 1, 0.5, 0.25, 0.125, 0.0625, 0.031, and 0.015 μg/ml, and the drug to be tested was diluted to concentrations of 256, 128, 64, 32, 16, 8, and 4 μg/ml. […] Fractional Inhibitory Concentration (FIC) is calculated as follows: […]
observable: Synergistic activity (FIC value) ATCC19606
Simply state the number, no unit and no words.

Worked cases, Synergistic activity (FIC value) ATCC19606 given:
NC(N)=Nc1nc(-c2ccc3ccccn23)cs1	0.56
Cn1ccc2cccc(-c3c[se]c(N=C(N)N)n3)c21	0.25
CSc1cc2c(C)cccn2c1-c1c[se]c(N=C2NCCCN2)n1	0.13
NC(N)=Nc1nc(-c2cccc3cc(Cl)ccc23)co1	0.52
CCc1[nH]c(N=C(N)N)nc1-c1cccc2c(C)cccc12	0.12

Now look at this entry.
Q) Given the entry Cc1ccc(Oc2ccccc2-c2csc(N=C(N)N)n2)c(C)c1 , what Synergistic activity (FIC value) ATCC19606 was observed with ATCC19606 strain (Acinetobacter baumannii)?
A) 0.03

====

Tested on: ATCC19606 strain (Acinetobacter baumannii)
procedure summary: Checkerboard antibacterial synergistic activity test with polymyxin E (FIC)
Assay type: cell-based
Parameters: key: FIC≤0.5 synergy; 0.5–1 additive; 1–2 indifferent; ≥2 antagonism
conditions used: combined with polymyxin E
observable: Synergistic activity (FIC value) ATCC19606
Answer with the value's number alone.

Solved cases (8 shown):
NC(N)=Nc1nc(-c2c(Br)cc(Br)cc2Br)c(I)o1 [Compound I-53]	0.28
Cc1cc(C)c(-c2csc(N=C(N)N)n2)c(C)c1 [Compound I-51]	1.25
NC(N)=Nc1nc(-c2ccc(Cl)cc2)cs1 [Compound I-38]	0.28
NC(N)=Nc1nc(C2CC3CC4CC3CC2C4)cs1 (stereo not drawn) [Compound I-117]	0.5
Oc1ccc(-c2ccccn2)c(-c2c[se]c(N=C3NCCCN3)n2)c1 [Compound I-137]	1.25
CC(C)(C)c1ccc(-c2c[nH]c(N=C(N)N)n2)cc1 [Compound I-12]	0.28
NC(N)=Nc1nc(-c2cc(Cl)c(O)c(Cl)c2)co1 [Compound I-40]	0.13
FC(F)(F)c1cc(-c2nc(N=C3NCCCN3)sc2Cl)ccc1Cl [Compound I-186]	0.13

Continue with the next compound.
Q) Suppose we examine the compound Clc1ccc(Oc2ccccc2-c2c[nH]c(N=C3NCCCN3)n2)c(Cl)c1 [Compound I-146] ; what Synergistic activity (FIC value) ATCC19606 value has been reported?
A) 0.31

====

System: ATCC19606 strain (Acinetobacter baumannii)
procedure summary: Checkerboard antibacterial synergistic activity test with polymyxin E (FIC)
Assay type: cell-based
Set-up: key: FIC≤0.5 synergy; 0.5–1 additive; 1–2 indifferent; ≥2 antagonism
conditions used: combined with polymyxin E
Label rule, in plain words: Synergistic activity (FIC value) ATCC19606 of 0.4 and up is 1, under 0.4 is 0.

Solved cases below.
O=C(Nc1cccc(-c2coc(N=C3NCCCN3)n2)c1)Nc1ccc(Cl)cc1Cl [Compound I-200]	0
CC(C)(C)c1cc(-c2csc(NC3=NCCCN3)n2)cc(C(C)(C)C)c1O [Compound I-163]	0
CCOC(=O)c1ccc(-c2c[nH]c(N=C(N)N)n2)cc1 [Compound I-25]	0

Q) Decide: Synergistic activity (FIC value) ATCC19606 of Fc1cc(-c2csc(N=C3NCCCN3)n2)c(F)cc1Oc1ccccc1 [Compound I-136] >= 0.4?
A) 1

====

Test system: ATCC25922 strain (Escherichia coli)
procedure summary: Broth microdilution, antibacterial activity of the compound used alone
Type: cell-based
observable: Antibacterial activity of the compound of Formula I, ATCC25922 (µg/mL)
Your answer is read as µg/mL, so omit the unit and give the number.

Cc1ccccc1Oc1cccc(-c2csc(N=C(N)N)n2)c1 [Compound I-91]	128
CS(=O)(=O)Oc1ccc(-c2coc(N=C(N)N)n2)cc1 [Compound I-28]	256
CC(C)c1ccccc1-c1coc(N=C(N)N)n1 [Compound I-15]	256
NC(N)=Nc1nc(-c2ccc(I)cc2)cs1 [Compound I-33]	256
Cc1ccc(NC(=O)Nc2cccc(-c3nc(N=C(N)N)sc3C)c2)c(C)c1 [Compound I-132]	256
NC(N)=Nc1nc(-c2cc(I)c(O)c(I)c2)co1 [Compound I-35]	256
Cc1cccc2cccc(-c3csc(N=C(N)N)n3)c12 [Compound I-57]	256
CC(C)=CCOc1ccc(-c2csc(N=C(N)N)n2)cc1 [Compound I-48]	256

Q) Entry NC(N)=Nc1nc(-c2cccc3ccccc23)cs1 [Compound I-55] has what Antibacterial activity of the compound of Formula I, ATCC25922?
A) 256

Q) State the recorded Antibacterial activity of the compound of Formula I, ATCC25922 for this entry: Fc1sc(N=C2NCCCN2)nc1-c1cc(Br)cc(Br)c1 [Compound I-177]
A) 256

Q) What does the record list as Antibacterial activity of the compound of Formula I, ATCC25922 for Clc1cc(Cl)cc(-c2csc(N=C3NCCCN3)n2)c1 [Compound I-187] ?
A) 128

Q) Looking for the measured Antibacterial activity of the compound of Formula I, ATCC25922 of NC(N)=Nc1nc(-c2cccc3cccnc23)co1 [Compound I-67] , can you help?
A) 256

Q) # get_value(readout='Antibacterial activity of the compound of Formula I, ATCC25922', item= CC(C)c1ccccc1-c1nc(N=C2NCCCN2)sc1Br [Compound I-164] )
A) 256

Q) Item under review: NC(N)=Nc1nc(-c2cccc3cccc(Cl)c23)c(Cl)s1 [Compound I-62] . Reported Antibacterial activity of the compound of Formula I, ATCC25922?
A) 128

Q) Entry Clc1cccc(-c2nc(N=C3NCCCN3)sc2Br)c1 [Compound I-185] has what Antibacterial activity of the compound of Formula I, ATCC25922?
A) 256

Q) I'd like to know its Antibacterial activity of the compound of Formula I, ATCC25922. The molecule in question is N#Cc1ccc(-c2csc(N=C3NCCCN3)n2)c(Br)c1 [Compound I-174]
A) 256
